I'd be grateful if you could share measured pKa for these entries.
Experiment: Acid dissociation constant (pKa) of amine compound (acid-base titration)
Format: physicochemical
Conditions: 25±2° C., in purified water
Answer with a bare number; do not write a unit.

The reported value for NCCCNCC1CCCC(CNCCCN)C1 (stereo not shown) in terms of pKa is 9.5

The reported value for NCCCN(CCCN)CC1CCCC(CN(CCCN)CCCN)C1 (stereo not shown) in terms of pKa is 9.8

The reported value for NCCNCCNCCN in terms of pKa is 10.3

The reported value for NCCN1CCNCC1 in terms of pKa is 10.1
